Origin of measurements: ChEMBL document CHEMBL3507680

# test.name: Human HepG2 cell viability assay in 384 well format
# Type: toxicity, cell-based
# Set-up: dose 125 nL, time 70.5 hour; concentration not given beside the values
# particulars: HepG2 cells, read-out: Inhibition
observation.type: cytotoxicity at 70.5 h (%)

INSERT INTO assay_data (compound, result_value) VALUES
  ('O[C@H]1[C@H](n2cc(CN3CCCC3)nn2)c2ccccc2C12CCNCC2', -7.31),
  ('COCCCNS(=O)(=O)c1cccc(CSC)c1', -16.6),
  ('Cn1cnc2c(-c3cccnc3)nc(C3CCNCC3)cc21', 15.6),
  ('Cc1ccc(CNC2(Cc3cc(-c4ccccn4)on3)COC2)o1', -1.75),
  ('CN(C)C(=O)CN1CCCC2(CCN(c3ccc(C#N)cn3)C2)C1 (centres undefined)', 8.76),
  ('O=C1CC2(CCCCN2C(=O)Cc2ccccc2)CN1c1cccnc1 (centres undefined)', -1.11),
  ('CCOc1cccc(NC(=O)c2cscn2)n1', -9.11),
  ('Cc1ncccc1C(=O)N1CCC2(CCc3ccccc3C(=O)N2)C1 (centres undefined)', 15.5),
  ('Cn1cc(CN2CCOCC3(CCN(C4CCOCC4)C3)C2)cn1 (centres undefined)', 6.49),
  ('Cc1sc2nc(SC(C)c3nc(C(C)C)no3)nc(N)c2c1C (centres undefined)', 3.75),
  ('Cc1ccc(CN2CCN(CC3CC3)[C@@H]3CS(=O)(=O)C[C@@H]32)cc1C', -6.12),
  ('CCN1CC(C(=O)N2CCN(CCn3cccc3)CC2)CC1=O (centres undefined)', 18.1),
  ('CC(C)OCc1ccccc1CNC(=O)C(C)(C)C', 0.195),
  ('CCC(C)CN1CCC(n2cc(C3CCCC3)nn2)CC1 (centres undefined)', 0.72),
  ('CC1(c2ccccc2)CCC(=O)N(CCN2CCOCC2)C1 (centres undefined)', -5.69),
  ('CCCN1CCc2nc(SCc3ccc(F)cc3)[nH]c(=O)c2C1', -3.74),
  ('CS(=O)(=O)CCCNC1(c2cccc(F)c2)CC1', -7.6),
  ('COc1c(C(=O)NCC(C)C)nnn1Cc1ccccc1', -4.1),
  ('Cc1cccc(-c2nccn2C2CC(=O)N(C(C)C)C2)n1 (centres undefined)', 0.181),
  ('Cc1c(C(N)=O)sc2nc(C(F)(F)F)ccc12', 19.9),
  ('CC(C)N(C)S(=O)(=O)N(C)Cc1ccc2c(c1)OCO2', 20.7),
  ('O=C(Cc1ccsc1)N1CCc2ccc(=O)n(CC3CC3)c2CC1', -3.62),
  ('CCn1nccc1CN(C)c1nc(N)nc2c1nc(C)n2C', -3.81),
  ('CN(CCS(=O)(=O)c1cc(Cl)ccc1Cl)CC(=O)Nc1ccc(F)cc1', 6.55);

###

# test.name: Human HepG2 cell viability assay in 384 well format
# Type: toxicity, cell-based
# Design: dose 125 nL, time 70.5 hour; concentration not given beside the values
# particulars: HepG2 cells, read-out: Inhibition
Each entry below carries its reported cytotoxicity at 70.5 h.
observation.type: cytotoxicity at 70.5 h (%)

INSERT INTO measurements (molecule, result_value) VALUES
  ('CCc1cnc(CN(C(C)=O)C2CCN(Cc3nccn3C)C2)o1 (stereo not drawn)', 1.08),
  ('CS(=O)(=O)CCCN1CCSCC1c1ccc(Cl)cc1 (stereo not drawn)', -9.37),
  ('O=C(C1CCOC1)N1CCC2(CC1)Cc1ccccc1CNC2=O (stereo not drawn)', -9.03),
  ('CC(C)n1nc2c(cc1=O)CN(c1ncnc3sccc13)CC2', -10.1),
  ('O=c1cc(Cn2ccnc2)nc2n1CCCN(Cc1ccsc1)C2', -19.5),
  ('CCOC(=O)N1CCC(OC)c2ccccc2N(CC(=O)NC)C(=O)C1 (stereo not drawn)', -3.27),
  ('Cc1nc(C)n(CC2CN(CCOc3ccccc3F)CCO2)n1 (stereo not drawn)', -10.8),
  ('CN(Cc1noc(C2CC2)n1)C1CCN(CC(=O)N2CCOCC2)C1 (stereo not drawn)', -3.02),
  ('CC1CN(Cc2cc(C#N)ccc2F)CCN1Cc1nccn1C (stereo not drawn)', -3.5),
  ('O=C(Cc1cccc(Cl)c1)Nc1cnccc1SCCCO', -6.16),
  ('CSC(C)C(=O)NCc1ccc(-n2cncn2)nc1 (stereo not drawn)', -10.2),
  ('CCCn1ncc(CN2CCCC(C(=O)c3ccc(Cl)cc3C)C2)c1C (stereo not drawn)', -7.11),
  ('Cc1nc2[nH]cnc(Nc3cc(C)n(C)n3)c-2n1', -1.58),
  ('COCCN1CCCC2(CCN(c3nc(C)nc4c3CCC4)C2)C1=O (stereo not drawn)', -4.89),
  ('C[S+]([O-])c1nncn1CC(=O)c1ccc2c(c1)CCO2 (stereo not drawn)', -2.98),
  ('Cc1ccc(C)c(S(=O)(=O)CCN2CCCC2Cn2cccn2)c1 (stereo not drawn)', -7.12),
  ('COCC1c2c(cnn2CC2CCOCC2)CCN1Cc1ccoc1 (stereo not drawn)', 3.09),
  ('CN(C)c1nccc(NC(=O)c2ccncc2)n1', -7.12),
  ('c1ccc(-c2cc(CNCCCC3CCOC3)c3nnnn3c2)cc1 (stereo not drawn)', 5.9),
  ('CC(Cn1cccn1)NC(=O)NCCc1ccc(Cl)s1 (stereo not drawn)', -5.79),
  ('Cc1cn2c(n1)CCC(NC(=O)CCOc1cccc(F)c1)C2 (stereo not drawn)', -4.07),
  ('O=C(N[C@@H]1CCC[C@@H](N2CCOCC2)[C@@H]1O)c1cc2ccccc2[nH]1', -5.17),
  ('Cc1nc[nH]c1CN(Cc1ccccc1)C1CC(C)(C)NC(C)(C)C1', 4.53),
  ('CN(C)CC1CSCCCN1C(=O)c1ccc(=O)[nH]c1 (stereo not drawn)', 10.8),
  ('CN1CCOCC12CCN(C(=O)C1CCC1)CC2', 1.58),
  ('Cc1cccc(N2CC3(CCN(C(=O)NC(C)C)C3)CC2=O)c1 (stereo not drawn)', -9.16),
  ('CCC(N)c1ccccc1OCC(=O)N1CCCC1 (stereo not drawn)', -7.75),
  ('O=C(Nc1ccc(Cn2cccn2)cc1)N1CCC2(CC1)OCCO2', 22.5),
  ('CC1CCCN(C(=O)Nc2cccc(CN3CCOC3=O)c2)C1 (stereo not drawn)', 35.6),
  ('CCS(=O)(=O)N1CCC2(CC1)CC[C@@]1(C(=O)N(C)C)CN(C(C)=O)C[C@@H]21', 13.5),
  ('Cc1cccc(NC(=O)[C@@H]2CCCN2CC(=O)N2CCCCCC2)n1', -4.62),
  ('CC(NCCN1CCN(C(=O)C2CCCC2)CC1)c1cnn(C)c1 (stereo not drawn)', 5.6),
  ('COc1ccc(N2CCN(C(=O)CCn3nccc3C)CC2(C)C)cc1', 1.97),
  ('COCC(=O)N1CCCC(C(=O)N(C)CCn2ccnc2C)C1 (stereo not drawn)', 3.1),
  ('Cc1ccc2nc(C3CCCN3C(=O)c3cc(=O)[nH]c(=O)[nH]3)[nH]c2c1 (stereo not drawn)', 30.8),
  ('CC(NCCCC#N)c1ccc(S(C)(=O)=O)c(F)c1 (stereo not drawn)', 9.59),
  ('CCOc1ccc(C#N)cc1NCc1cc(C)on1', 27.9),
  ('O=C(c1ccc[nH]1)N1Cc2nccn2CC(COc2cccnc2)C1 (stereo not drawn)', 18.1),
  ('CN1CCC(c2cncc(Cl)n2)CC1', -5.05),
  ('CC(C)Oc1ccc(CC2=N[C@](C)(CO)CO2)cc1', 21.4),
  ('Cc1noc(Cl)c1CC(=O)NCC(C)(O)c1ccc(F)cc1F (stereo not drawn)', 10.7),
  ('CCOCCCNC(=O)N(C)Cc1ccc(SC)c(OC)c1', 1.54),
  ('CC(C)c1ccc(C2(C(=O)NCCS(N)(=O)=O)CCC2)cc1', -9.09),
  ('COc1ncccc1NC(=O)N(C1CC1)C(C)C(C)C (stereo not drawn)', -13.6),
  ('Cc1ccc(CN2CC[C@]3(C[C@H](OCc4ccccn4)CO3)C2)o1', -18.4),
  ('Cc1ccc(NC(=O)NCC2(O)CCCC2)cc1C', -1.58),
  ('CC(C)CNC(=O)N1CC[C@@H]2CN(Cc3cccnc3)S(=O)(=O)[C@@H]2CC1', -4.92),
  ('c1ccc(CO[C@H]2CC[C@H]3[C@H]2OCCN3Cc2nccs2)nc1', 1.15);

###

Each entry below carries its reported cytotoxicity at 70.5 h.
# test.name: Human HepG2 cell viability assay in 384 well format
# Type: toxicity, cell-based
# Parameters: dose 125 nL, time 70.5 hour; concentration not given beside the values
# particulars: HepG2 cells, read-out: Inhibition
observation.type: cytotoxicity at 70.5 h (%)

INSERT INTO results (compound, observation_type, result_value) VALUES
  ('CCSCCn1c(=O)n(Cc2ccc(F)cc2)c2ncc(C(=O)O)cc21', 'cytotoxicity at 70.5 h', -4.52),
  ('Cc1ccc(CC2COc3ccccc3C2)c(N)n1 (stereo not drawn)', 'cytotoxicity at 70.5 h', 16.3),
  ('Cc1ccccc1SC1CCN(C(=O)C2CNCC(=O)N2)CC1 (stereo not drawn)', 'cytotoxicity at 70.5 h', -1.6),
  ('COCC(=O)N1C[C@@H](c2cc(O)nc(C)n2)[C@H](c2ccccc2F)C1', 'cytotoxicity at 70.5 h', 13),
  ('Cc1nc(CN2CCCC(NCc3csc(C(C)(C)C)n3)C2)no1 (stereo not drawn)', 'cytotoxicity at 70.5 h', -6.65),
  ('CC(C)c1ocnc1C(=O)NC(c1nnc2n1CCNCC2)C(C)C (stereo not drawn)', 'cytotoxicity at 70.5 h', -16.6),
  ('CC(C)Oc1ccc(CNC(=O)CCN2C(=O)CCC2=O)cc1F', 'cytotoxicity at 70.5 h', -3.49),
  ('COCc1cncc2c1CCN(C(=O)c1cccc(C#N)c1)C2', 'cytotoxicity at 70.5 h', -8.16),
  ('N#CC(NC(=O)c1cccc2c1OCCO2)c1ccc(F)cc1F (stereo not drawn)', 'cytotoxicity at 70.5 h', -4.12),
  ('O=C(Cc1ccc2c(c1)CCCC2)N[C@@H]1CC[C@@H](n2ccnc2)[C@@H]1O', 'cytotoxicity at 70.5 h', -3.88),
  ('O=C(Nc1cn[nH]c1)c1ccncc1', 'cytotoxicity at 70.5 h', 4.52),
  ('CC1CCN(S(=O)(=O)N2CCC(Oc3cnccn3)CC2)CC1', 'cytotoxicity at 70.5 h', -5.91),
  ('CS(=O)(=O)c1cc(Cl)cnc1C1CCCN(C(=O)C2CCOCC2)C1 (stereo not drawn)', 'cytotoxicity at 70.5 h', -7.95),
  ('Cc1cccc2c1CCN(c1cc(N3CCCC3CO)ncn1)C2 (stereo not drawn)', 'cytotoxicity at 70.5 h', -10.5),
  ('COc1ccc(OC(F)F)c(NCC(=O)NCC(=O)N2CCCC2)c1', 'cytotoxicity at 70.5 h', -7.93),
  ('CC(C)n1cc(N2CC(C(=O)N3CCC(C(N)=O)CC3)CC2=O)cn1 (stereo not drawn)', 'cytotoxicity at 70.5 h', -11.7),
  ('CCc1ncc2c(n1)CN(Cc1cccc(OCC(N)=O)c1)CC2', 'cytotoxicity at 70.5 h', 1.32),
  ('CN(C)CCN1CCCC12CCN(C(=O)c1cnccn1)CC2', 'cytotoxicity at 70.5 h', 6.16),
  ('Cc1nnc(NC(=O)NCCN(C(=O)OC(C)(C)C)C2CC2)s1', 'cytotoxicity at 70.5 h', -4.34),
  ('CN1CCCN(c2nccc(-c3cc(C(=O)O)ccn3)n2)CC1', 'cytotoxicity at 70.5 h', 24.6),
  ('CCc1cccc(-n2nnc(C(=O)O)c2-c2ccncc2)c1', 'cytotoxicity at 70.5 h', -13.1),
  ('CS(=O)(=O)NC[C@H]1OC[C@@H]2CCN(Cc3ccc(F)cc3)C[C@@H]21', 'cytotoxicity at 70.5 h', 16.9),
  ('Cc1ccc(-c2csc(-c3cccc(C(=O)O)c3)n2)cc1', 'cytotoxicity at 70.5 h', 19.5);
